- Tested on: NCI-H522 lung
- ASSAY_EXPLANATION: NCI tumour cell line growth inhibition, 48 h; in the data active = GI50 below about 0.43 µM; inactive = the rest
Outcomes: YES for active, NO for inactive

INSERT INTO assay_data (compound, study_target, assigned_class) VALUES
  ('COC1C(CO)OC(n2c3ccccc3c3c4c(c5c6ccccc6[nH]c5c32)C(=O)NC4=O)C(OC(=O)C(N)CCCCN)C1O (centres undefined)', 'NCI-H522 lung', 'YES'),
  ('c1cc(N2CCCC2)c2nc(-c3[nH]ncc3Nc3ncnc4[nH]ccc34)[nH]c2c1', 'NCI-H522 lung', 'YES'),
  ('COC(=O)c1c2c(c[n+]([O-])c1C)C(=O)C=C(NCc1ccccc1)C2=O', 'NCI-H522 lung', 'YES'),
  ('O=C1/C(=C\c2ccc(Br)cc2)CN(C(=O)c2ccccc2F)C/C1=C\c1ccc(Br)cc1', 'NCI-H522 lung', 'NO'),
  ('O=C1NC(=NCCc2cccs2)S/C1=C\c1ccc2ncccc2c1', 'NCI-H522 lung', 'NO'),
  ('O=C1OCC2=C1C(c1cccc(F)c1)c1cc3c(cc1N2CCO)CCC3 (centres undefined)', 'NCI-H522 lung', 'YES'),
  ('CCC[CH2][Sn]([CH2]CCC)([O]C(=O)Cc1ccc(F)cc1)[O]C(=O)Cc1ccc(F)cc1', 'NCI-H522 lung', 'YES'),
  ('COc1cc(-n2cncc2-c2ccc3ccccc3c2)cc(OC)c1OC', 'NCI-H522 lung', 'YES'),
  ('COc1cc(C(=O)/C=C/c2c(-c3cccs3)nc3sc(C)cn23)cc(OC)c1OC', 'NCI-H522 lung', 'NO');
